Taken from ChEMBL document CHEMBL6103565.

# inhibition zone (IZ) values compiled below
System: Aspergillus fumigatus
Assay Protocol: Antifungal activity against Aspergillus fumigatus assessed as zone of inhibition; note: test concentration or dose not given here
Format: functional

- Compound: "CCc1nnc2c(Nc3ccc(C4=NNC(c5ccc(Cl)cc5)C4)cc3)nc3ccccc3n12 (stereo not given)"
  inhibition zone (IZ) / mm: 22
- Compound: "CCc1nnc2c(Nc3ccc(C4=NN(C(N)=O)C(c5ccc(Cl)cc5)C4)cc3)nc3ccccc3n12 (stereo not given)"
  inhibition zone (IZ) / mm: 22
- Compound: "C[C@@H]1[C@H](O)[C@@H](C)/C=C/C=C/C=C/C=C/C=C/C=C/C=C/[C@H](O[C@@H]2O[C@H](C)[C@@H](O)[C@H](N)[C@@H]2O)C[C@@H]2O[C@](O)(C[C@@H](O)C[C@@H](O)[C@H](O)CC[C@@H](O)C[C@@H](O)CC(=O)O[C@H]1C)C[C@H](O)[C@H]2C(=O)O [AMPHOTERICIN B]"
  inhibition zone (IZ) / mm: 24
- Compound: "CCc1nnc2c(Nc3ccc(C4=NN(c5ccccc5)C(c5ccc(Cl)cc5)C4)cc3)nc3ccccc3n12 (stereo not given)"
  inhibition zone (IZ) / mm: 21
- Compound: "CCc1nnc2c(Nc3ccc(C(=O)/C=C/c4ccc(OC)cc4)cc3)nc3ccccc3n12"
  inhibition zone (IZ) / mm: 21
